Data provenance: paper PMC3418449

target: GRK2 (S670A), flow cytometry and crystallography (bovine, UniProt P21146 1-689, S670A); test: competition
Sequence (P21146 whole entry S670A): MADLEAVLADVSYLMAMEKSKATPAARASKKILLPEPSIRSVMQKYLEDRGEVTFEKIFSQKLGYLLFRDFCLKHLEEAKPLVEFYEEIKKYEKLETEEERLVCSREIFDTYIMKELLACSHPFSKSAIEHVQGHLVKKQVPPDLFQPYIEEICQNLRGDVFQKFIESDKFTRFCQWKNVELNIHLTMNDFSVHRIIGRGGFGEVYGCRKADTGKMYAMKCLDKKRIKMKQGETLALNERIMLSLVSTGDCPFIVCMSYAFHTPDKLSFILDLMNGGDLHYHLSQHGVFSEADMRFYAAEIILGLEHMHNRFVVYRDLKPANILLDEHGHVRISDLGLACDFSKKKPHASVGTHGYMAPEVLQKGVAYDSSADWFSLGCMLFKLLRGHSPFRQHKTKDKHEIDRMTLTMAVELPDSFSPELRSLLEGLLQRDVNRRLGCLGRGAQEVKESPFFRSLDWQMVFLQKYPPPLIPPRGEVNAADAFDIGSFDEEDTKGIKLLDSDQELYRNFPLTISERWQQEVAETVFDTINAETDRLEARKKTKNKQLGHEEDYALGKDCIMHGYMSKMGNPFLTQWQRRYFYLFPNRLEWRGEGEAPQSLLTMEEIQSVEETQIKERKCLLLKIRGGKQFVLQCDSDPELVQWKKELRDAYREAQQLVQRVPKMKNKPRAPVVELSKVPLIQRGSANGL

{"columns": ["binder", "IC50 (nM)"],
 "data": [
  ["GGCAGACCAUACGGGAGAGAAACUUGCC (ssRNA) [C13.28]", 3.3]
]}
